Values compiled from the nanobody polyreactivity screen of Harvey et al. (2022).

Assay: yeast display, Sf9 membrane polyspecificity reagent, FACS + sequencing; frameworks hold sequencing errors
property name: polyreactivity (PSR sort gate)

Some solved cases for reference:
seq_text=QVQLVESGGGLVQAGGSLRLSCAASGRIFYAYAMGWYRKAPGKERELVAAITETGGNTYYADSVKGRFTISRDNAKNTVYLQMNSLKPEDTAVYYCARKGRRTHHYGLYSSSVYYWGQGTQVTVSS property_name="polyreactivity (PSR sort gate)" result="low polyreactivity"
seq_text=QVQLVESGGGLVQAGGSLRLSCAASGSTFRVNTMGWYRQAPGKERELVAAISWSTGTSTYADSVKGRFTISRDNAKNTVYLQMNSLKPEDTAVYYCAAGQPAWGVEYDSWGQGTQVTVSS property_name="polyreactivity (PSR sort gate)" result="low polyreactivity"
seq_text=QVQLVESGGGLVQPGGSLRLSCAASGRIFYRYAMGWYRQAPGKERELVAAITARGGSTYYADSVKGRFTISRDNAKNTVYLQMNCLKPEDTAVYYCNKLLSNPYYPSYDYWGQGTQVTVSS property_name="polyreactivity (PSR sort gate)" result="high polyreactivity"
seq_text=QVHLVESGGGLVQAGGSLRLTCAASGGIFHINAMGWYRQAPGKERELVAAITRTTITYADSVKGRFTISRDNAKYTVYLQMNRLKLEDSAVYYCAARDKRTPSGVEITGYDYWGQGSQVTVSS property_name="polyreactivity (PSR sort gate)" result="low polyreactivity"
seq_text=QVQLVESGGGLVQAGGSLRLSCAASGRTYTFNTMGLSRQAPGKEREWVAAIDGDGTTNYADSVKGRFTISRDNAKNTVYLQMNSLKPEDTAVYYCAADFLYSFWYEPTFDYWGQGTQVTVSS property_name="polyreactivity (PSR sort gate)" result="low polyreactivity"

Summary for this sequence, QVQLVESGGGLVQAGGSLRLSCAASGFTFRWYAMGWYRQAPGKERELVAAISSGGGSTYYADSVKGRFTISRDNAKNTVYLQMNSLKPEDTAVYYCNARIQYFKYRGYEYWGQGTQVTVSS : polyreactivity (PSR sort gate) is high polyreactivity

Memo: QVQLVESVGGLVQARGSLRLSCAASASIFPSYAMGWYIQAPGKERELVAVISWRGGSTYYADSVKGRFTISRDNAKNTVYLQMNRLKPEDTAVYYCAARSWDPKLSTYPFHFNYWGQGTQVTVSS , reported polyreactivity (PSR sort gate): high polyreactivity

Notebook: QVQLVESGGGLVQAGGSLRLSCAASGGTFPTNAMGWYRQATGKERELVAAITSSGVRTYYADSVKGRFTISRDNAKNTVYLQLNSLKPEDTAVYYCKAVTRYVRLTDDDYWGQGTQVTVSS , polyreactivity (PSR sort gate) read as high polyreactivity

Memo: QVQLVESGGGLVQAGGSLRLSCAASGFTFGKYCMGWYRQAPGKERELVAAISASGGITYYADSVKGRFTISRDNAKNTVYLQMNSLKPEDTAVYYCAARRYEPKAVYYWGQGTQVTVSS , reported polyreactivity (PSR sort gate): high polyreactivity

QVQLVESGGGLVQAGGSLRLSCAASGRNFSRYALGWYRQAPGKERELVAAINNGGSTYYADSVKGRFTISRDNAMNTVYLQMNSLKPEDTALYYCAKLWWSNFKPVEYWGQGTQVTVSS has a reported polyreactivity (PSR sort gate) of low polyreactivity

polyreactivity (PSR sort gate) for QVQLVESGGGLVQAGGSLRLSCAASGSIFIQNGMGWYRQAPGKERELVASSASGGSTNYADSVKGRYTISRDNAKNTVYVQMNSLKPEDTAVYYCAARVWYSSDGSTYPYTRYDYWGQGTQVTVSS is high polyreactivity

###

Experiment: yeast display, Sf9 membrane polyspecificity reagent, FACS + sequencing; frameworks hold sequencing errors
property name: polyreactivity (PSR sort gate)

seq_text=QFQLVESGGGLVQAGGRLRLSCAASGRIFQLYTMGWYRQAPGKEREFVASISFITGRTYYADSVKGRFTISRDNAKKTVYLQMNSLKPEDTAVYYCNTRYDGGFDSWGQGTQVTVSS result="high polyreactivity"
seq_text=QVQLVESGGGVVQAGGSLRLSCAASGRTFPYNPMGWYRQAPGKERELVAAISGRGGSTYYADSVKGRFTISRDNAKNTVYLQMNSLKPEVSAVYYCDARLPWSYYRTQGYNYWGQGTQVTVSS result="high polyreactivity"
seq_text=QVQLVESGGGVVQAGGSLRLSCAASGSIYSQYAMGWYRQAPGTERELVASISRRGGRTYYADSVKGRFTISRDNAKNTVYLQMNSLKPEETAVYYCAALDTAGPYNTLDIYDHWGQGTQVTVSS result="high polyreactivity"
seq_text=QVQLVESGGGLVQAGGSLRLSSAASGFTFSLYRMGWYRQAPGKERELVASISNRGGTFYADSVKGRFTISRDNAKNTVYVQMNSLKPEETAVYYCARKTYYTGDFLGREYGYWGQGPQVTVSS result="low polyreactivity"
seq_text=QVQLVESGGGLVQAGGSLRVSCAASGRIFTIYAMGWYRQAPGTEREVVAAISDRGTRTYYADSVKGRFTISRDNAKNTVYVQMNSLKPEDTALYYCATDALYTYGYDYWGQGSQVTVSS result="low polyreactivity"
seq_text=QVQLVESGGGLVQAGGSLRLSCAASRRTFSQYAMGWYRQAHGKERELVAAITSARSTYYADSVKGRFTISRDNAKNTVYLQMNSLKPEDTAVYYCAAYIRFRSNWGQGTQVTVSS result="high polyreactivity"

polyreactivity (PSR sort gate) in this record for QVQLVESGGGLVQAGGSLRLSCAASGRTFRYYTMGWYRQAPGKEREFVAAISSTGGTYYADSVKGRFTISRDNAKNTVYLQMNSLKPEDTAVYYCNADTIYYAGDFRYDYWGQGTQVTVSS : low polyreactivity

###

Assay: yeast display, Sf9 membrane polyspecificity reagent, FACS + sequencing; frameworks hold sequencing errors
property name: polyreactivity (PSR sort gate)

seq_text=QVQLVESGGGLVQAGGSLRLSCAASGNIFYYYAMGWYRQAPGKERELVATISKGGGSTNYADSVKGRFTISRDNAKNTVYLQMNSLKPEDTAVYYCNASYVSRRYHFDYWGQGTQVTVSS result="high polyreactivity"
seq_text=QVQLVESGGGLVQAGGSLRLSCAASGFIFPYYAMGWYRQAPGKERELVAAISSSGGRTYYADSVKGRFTISRDNAKNTVYLQMNSLKPEDTAVYYCNARPNPYLGYGYWGQGTQVTVSS result="high polyreactivity"
seq_text=QVQLVESGGGLVQAGRSLRLSSAASGSIVAPNPMGWYRQAPGKEREYVAAITLDDGRTYYADSVKGRFTISRDNSNNTVYLHMNSRKPEDTAVYYCNAEWRGYSVYWRTRYDSWGQGTHVTVSS result="low polyreactivity"
seq_text=QLQLVESGAGLVQAGGSLRLSCAASGSTFTVYGMAWYRQAPGKERELVAAITYSGGSTYYADSVKGRFTISRDNAKHTVYLTMNSLKPEDTGVYYCAAAGSQYYRRWYDYWGQGTQVTVSS result="low polyreactivity"

Now consider a different sequence.
Quick note, polyreactivity (PSR sort gate) for QGQLVESGGGLVQAGGSLRLSCAASGLIFYKYAMGWYRQAPGKERELVAVISWSGGSTYYADSVKGRFTISRDNAKNTVYLQMNRLKPEDTAVYYCAADTSYYRIRGWFGRVDYGYWGQGTQVTVSS landed at high polyreactivity

###

Experiment: yeast display, Sf9 membrane polyspecificity reagent, FACS + sequencing; frameworks hold sequencing errors
property name: polyreactivity (PSR sort gate)

# count of solved cases: 5
seq_text=QVQLVESGGGLVQAGGSLRLSCAASGLIFSYNAMGWYRQAPGKVRELVATSRRVGSTHYADSVKGRFTISRDNAKNTVYLPMNSLKPEDTAVYDCAARSLRYGRGMYYWGQGTQGTVSS property_name="polyreactivity (PSR sort gate)" result="high polyreactivity"
seq_text=QVQLVESGVGLVQAGGSLRLSSAASGIIFVSNAMRWYRQAPGKERELVATINWSDDSTYYADSVKGRFTISRDNAKKTVSLQMNSLKADYTAVYYCYCGQGTQVTVSS property_name="polyreactivity (PSR sort gate)" result="low polyreactivity"
seq_text=QVQLVESGGGLVQAGGSLRLSCAASGSTSRYYDMGWYRQAPGKERELVATITISGITNYADSLKGRFTISRDNAKNTVYLQMNSLKPEDTAVYYCATVGPWPGEYDYWGQGTQVTVSS property_name="polyreactivity (PSR sort gate)" result="low polyreactivity"
seq_text=QVQLVESGGGLVQAGGSLRLSCAASGFIFSRYAMGWSRQAPGKERELVAAISSRGGSTYYADSVKGRFTISRDNAKNTVYLQMNSLKPEDTAVFYWIAVGSAHYDYWGQGTQVTVSS property_name="polyreactivity (PSR sort gate)" result="high polyreactivity"
seq_text=QVQLVESGGGLVQAGGSLRLSCAASGSTFVYYAMGWYRQAPGKERELVAAITASGGRTYYADSVKGRFTISRDNAKNTVYLQMNSLKPEDTAVYYCNTVRPHGMDYWGQGTQVTVSS property_name="polyreactivity (PSR sort gate)" result="high polyreactivity"

QVQLVESGGGLVQAGGSLRLSCAASGSIFYGNAMGGYRQAPGKERELVASITYSGGNTQYADSVKGRFTISRDNAKNTVYLQMNSLKPEVTAVYYCNARRYGVDTGWRQGLDSWGQGTQVTVSS has a reported polyreactivity (PSR sort gate) of low polyreactivity

polyreactivity (PSR sort gate) reading for QVQLVESGGGLVQAGGSLRLSCAASGIIFAHNAMGWYRQAPGKERELVAAISKRGGSTYYADSVKGRFTISRDNAKNTVYLQMNSLKPEDTAVYYCNKYSSYSFTYDSWGQGTQVTVSS : high polyreactivity

For this sequence ( QVQLVESGVGLVQAGGSLRLSCAATGFTFDENAMGWYRQAPGINYSGASTYYAYSVKGRFTISRDNAKNTVYLQMNSLKPEDTAVYYCAAEVVAQMNYWGQGTQVTVSS ), measured polyreactivity (PSR sort gate) is low polyreactivity

According to the records, this sequence QVQLVESGGGLVQAGGSLRLSCAASGFIFAHNAMGWYRQAPGKVRELVAAISWGSGSTYYADSVKGRFTISRDNAKITVYLQMNSLKPEDTAVSYCAARAVRYYAWVRGGWTSFDYWGQGTQVTVSS displays polyreactivity (PSR sort gate) of high polyreactivity

Recorded result, QVQLVESGGGLVQAGGSLRLSCAASGSTFYRYAMGWYRPAPGKERELVAAITSAGSTNYADSVKGRFTISRDNAKNTVYLQMNSLKPEDTAVYYCAKDLTRWGYNEYDYWGQGSQVTVSS , polyreactivity (PSR sort gate): low polyreactivity
